# STUDY_TARGET: AMPA receptors
# ASSAY_SUMMARY: AMPA receptor binding affinity (Honore et al.)
pIC50: −log10 of the molar value.
READOUT_LABEL: pIC50

1 = Cc1c([N+](=O)[O-])cc2[nH]c(=O)c(=O)[nH]c2c1CN(C)C(=O)c1cc2ccccc2s1
2 = Cc1c([N+](=O)[O-])cc2[nH]c(=O)c(=O)[nH]c2c1CN(C)C(=O)c1ccc(Cl)cc1
3 = Cc1c([N+](=O)[O-])cc2[nH]c(=O)c(=O)[nH]c2c1CN(C)C(=O)c1ccc(C(F)(F)F)cc1
Hello, I need these entries ordered by pIC50, highest reading first. Thanks! // format: requested-order list of labels
1, 2, 3

###

# STUDY_TARGET: kainate site (non-NMDA receptor)
# ASSAY_SUMMARY: kainate site (non-NMDA receptor) binding affinity (London and Coyle)
READOUT_LABEL: IC50 KA (µM)

Sample answers from the record:
>  <COMPOUND>
Cc1c([N+](=O)[O-])cc2[nH]c(=O)c(=O)[nH]c2c1CN(C)C(=O)c1ccc(C(F)(F)F)cc1 [Compound 8]

>  <READOUT_LABEL>
IC50 KA

>  <RESULT_UNIT>
µM

>  <TEST_RESULT>
3.70

$$$$
>  <COMPOUND>
Cc1c([N+](=O)[O-])cc2[nH]c(=O)c(=O)[nH]c2c1CN(C)C(=O)Cc1ccccc1 [Compound 5]

>  <READOUT_LABEL>
IC50 KA

>  <RESULT_UNIT>
µM

>  <TEST_RESULT>
0.59

$$$$
>  <COMPOUND>
CC(=O)N(C)Cc1c(C)c([N+](=O)[O-])cc2[nH]c(=O)c(=O)[nH]c12 [Compound 1]

>  <READOUT_LABEL>
IC50 KA

>  <RESULT_UNIT>
µM

>  <TEST_RESULT>
1.66

$$$$

a = Cc1c([N+](=O)[O-])cc2[nH]c(=O)c(=O)[nH]c2c1CN(C)C(=O)CC1CCCCC1 [Compound 4]
b = CCOC(=O)N(C)Cc1c(C)c([N+](=O)[O-])cc2[nH]c(=O)c(=O)[nH]c12 [Compound 15]
Among a and b , which shows a numerically higher IC50 KA result? Write the label of whichever entry you select.
a
(a: 2.97 µM, b: 0.29 µM)

###

# STUDY_TARGET: AMPA receptors
# ASSAY_SUMMARY: AMPA receptor binding affinity (Honore et al.)
pIC50: −log10 of the molar value.
READOUT_LABEL: pIC50

Consider the following illustrative entries.
>  <SMILES>
Cc1c([N+](=O)[O-])cc2[nH]c(=O)c(=O)[nH]c2c1CN(C)C(=O)c1ccco1

>  <pIC50>
6.42

$$$$
>  <SMILES>
Cc1c([N+](=O)[O-])cc2[nH]c(=O)c(=O)[nH]c2c1CN(C)C(=O)c1cccs1

>  <pIC50>
6.34

$$$$
>  <SMILES>
Cc1c([N+](=O)[O-])cc2[nH]c(=O)c(=O)[nH]c2c1CN(C)C(=O)c1ccc([N+](=O)[O-])cc1

>  <pIC50>
5.95

$$$$

1 = Cc1c([N+](=O)[O-])cc2[nH]c(=O)c(=O)[nH]c2c1CN(C)C(=O)c1ccccc1
2 = CCOC(=O)N(C)Cc1c(C)c([N+](=O)[O-])cc2[nH]c(=O)c(=O)[nH]c12
3 = COc1ccc(C(=O)N(C)Cc2c(C)c([N+](=O)[O-])cc3[nH]c(=O)c(=O)[nH]c23)cc1
4 = Cc1c([N+](=O)[O-])cc2[nH]c(=O)c(=O)[nH]c2c1CN(C)C(=O)CC1CCCCC1
Ascending by pIC50, please: list the molecules accordingly. List the labels, following the order given in the request.
4, 1, 3, 2
